Data credit: PubChem BioAssay AID570

Target: Collagenase 3 (Homo sapiens)
Test: inhibition of MMP13 collagenase activity – biochemical, FRET peptide cleavage, primary screen (AID 570);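 further: 0% = DMSO wells and 100% = wells with reference MMP-13 inhibitor after basal subtraction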
Conditions: MMP-13 fTHP FRET cleavage, Mca fluorescence; at 4 µM; active compounds read high
In all, about 65,000 compounds went through this assay and about 45 (0.07%) were called active. For the sample, actives were picked, then their nearest neighbours and some compounds at random.
measure: inhibition (%)

CC1CCN(C(=O)Cn2cc(C(=O)c3ccco3)c3ccccc32)CC1 :: -1.8
Cc1oc(-c2cccc(Cl)c2)[n+]([O-])c1C :: -6.2
Cn1c(Cc2csc(N)n2)nnc1SC/C=C/c1ccccc1 :: 6.2
CC(C)(C)c1cc(CN2CCN(CCC#N)CC2)cc(C(C)(C)C)c1O :: -0.2
C=CCSc1nnc(Cn2c(=O)sc3ccccc32)n1C :: -10.7
O=C(Nc1ccc2c(c1)OCCO2)C1CCCN(c2ncccn2)C1 (stereo unspecified) :: 4.5
Cc1cc(/C=N/n2cnnc2)c(C)n1-c1ccc2ncccc2c1 :: -12
Cc1ccccc1NC(=O)NCc1ccco1 :: 2.4
O=C(CC1Oc2ccccc2NC1=O)NCCCN1CCN(Cc2ccccc2)CC1 (stereo unspecified) :: -2
Cn1c(=O)c2c(nc(Br)n2CCSc2nc3ccccc3o2)n(C)c1=O :: 0.1
O=C(NCCCN1CCN(c2ccccc2F)CC1)C1CCC(=O)N1C1CCCCC1 (stereo unspecified) :: 1.3

###

Biological target: Collagenase 3 (Homo sapiens)
Test: inhibition of MMP13 collagenase activity – biochemical, FRET peptide cleavage, primary screen (AID 570);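 further: 0% = DMSO wells and 100% = wells with reference MMP-13 inhibitor after basal subtraction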
Conditions: MMP-13 fTHP FRET cleavage, Mca fluorescence; at 4 µM; active compounds read high
About 45 (0.07%) of roughly 65,000 compounds were called active. This is one part of a sample in which actives are shown more often than they occur.
measure: inhibition (%)

CCCc1nc2c3cnn(-c4cccc(Cl)c4)c3ncn2n1 :: -4.1
Cc1ccc(C(C)C)c(OCc2nnc(SCC(=O)Nc3nccs3)n2C)c1 :: -0.8
COc1ccccc1N(CC(=O)N1CCCCC1)S(=O)(=O)c1ccccc1 :: 2.1
COc1ccccc1OCCC(=O)OCC(=O)NC(=O)NC(C)(C)C :: 3.7
COC(CCN(C)C)(c1ccccc1)c1ccccc1 :: -0.2
Cn1c(=O)n(CCc2ccccc2)c(=O)c2c1nc1n2CCCN1c1ccccc1 :: -0.2
CNC(=O)CSc1nnnn1-c1ccc(C)cc1C :: 1.5
CC(=O)NC(C)(C)C1CC=C(C)/C(=N\O)C1 (stereo not drawn) :: 4.1
